Data provenance: ChEMBL document CHEMBL1148703

# target-under-test: Thymidine kinase (Varicella-zoster virus (strain Dumas) (HHV-3) (Human herpesvirus 3), UniProt P09250)
# Sequence (P09250 whole entry): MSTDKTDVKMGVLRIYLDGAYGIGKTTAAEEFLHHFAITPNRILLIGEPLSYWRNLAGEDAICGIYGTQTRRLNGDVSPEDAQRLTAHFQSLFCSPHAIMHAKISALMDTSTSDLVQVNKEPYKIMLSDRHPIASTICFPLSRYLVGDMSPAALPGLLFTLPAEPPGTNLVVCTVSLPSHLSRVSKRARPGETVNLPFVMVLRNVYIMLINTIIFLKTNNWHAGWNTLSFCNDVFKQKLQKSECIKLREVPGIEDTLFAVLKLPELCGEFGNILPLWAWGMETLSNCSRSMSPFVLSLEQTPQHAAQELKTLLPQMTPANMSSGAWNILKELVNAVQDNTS
# method-description: Inhibition of VZV thymidine kinase
pIC50: −log10 of the molar value.
The entries below come with measured pIC50 values attached.
measured-property: pIC50

1. CCCC#Cc1ccc(-c2cc3cn([C@H]4C[C@H](O)[C@@H](CO)O4)c(=O)nc3o2)cn1    5.54
2. CCCCCCCCC#Cc1cc2cn([C@H]3C[C@H](O)[C@@H](CO)O3)c(=O)nc2o1    3.66
3. CCCCCc1cnc(-c2cc3cn([C@H]4C[C@H](O)[C@@H](CO)O4)c(=O)nc3o2)nc1    4.62
4. O=c1nc2oc(C#Cc3ccccc3)cc2cn1[C@H]1C[C@H](O)[C@@H](CO)O1    3.31
